# EC50 per record follows
# test_target: OGA (Homo sapiens, UniProt O60502)
# Construct: HEK293 cells inducible for P301L mutant human Tau (isoform 2N4R) were established at Janssen; endogenous in cells; host or cells: HEK293 cells inducible for P301L mutant human Tau (2N4R)
# Sequence (O60502 1-916): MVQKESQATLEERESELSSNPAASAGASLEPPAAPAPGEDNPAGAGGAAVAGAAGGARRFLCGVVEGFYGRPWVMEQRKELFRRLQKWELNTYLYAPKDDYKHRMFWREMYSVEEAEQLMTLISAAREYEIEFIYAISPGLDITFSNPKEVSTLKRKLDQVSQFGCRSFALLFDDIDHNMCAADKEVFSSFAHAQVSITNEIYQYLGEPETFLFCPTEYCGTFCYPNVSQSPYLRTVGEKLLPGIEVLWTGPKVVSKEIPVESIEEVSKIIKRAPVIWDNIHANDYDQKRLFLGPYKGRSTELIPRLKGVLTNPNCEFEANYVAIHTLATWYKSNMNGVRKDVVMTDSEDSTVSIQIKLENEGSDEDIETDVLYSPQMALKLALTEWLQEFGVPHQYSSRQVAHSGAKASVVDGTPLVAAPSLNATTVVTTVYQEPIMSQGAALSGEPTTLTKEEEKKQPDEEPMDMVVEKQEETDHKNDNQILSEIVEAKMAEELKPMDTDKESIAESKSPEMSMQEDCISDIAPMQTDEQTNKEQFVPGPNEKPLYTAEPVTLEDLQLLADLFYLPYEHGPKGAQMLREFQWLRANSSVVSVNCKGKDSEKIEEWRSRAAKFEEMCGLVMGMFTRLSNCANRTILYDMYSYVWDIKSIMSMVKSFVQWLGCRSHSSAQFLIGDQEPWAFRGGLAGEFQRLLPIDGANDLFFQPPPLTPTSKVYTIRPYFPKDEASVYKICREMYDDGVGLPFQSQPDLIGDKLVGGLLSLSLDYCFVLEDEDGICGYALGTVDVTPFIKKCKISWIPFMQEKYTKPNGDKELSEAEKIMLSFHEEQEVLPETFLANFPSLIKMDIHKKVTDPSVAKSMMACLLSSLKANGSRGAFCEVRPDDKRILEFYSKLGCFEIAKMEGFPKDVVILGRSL
# assay_summary: OGA cellular assay (ICC detection of O-GlcNAcylated proteins in HEK293 cells inducible for P301L mutant human Tau)
# Type: cell-based
# condition_summary: 6 hours incubation, read-out: CELLULAR hOGA, pEC50 (converted)

Below, 3 compounds whose answers are already recorded.
compound: Cc1cc(N2CCC3(CCN(C(C)c4ccc5nccnc5c4)C3)C2)cc(C)n1 (single isomer, unassigned)
endpoint_label: EC50
result: 3800 nM
//
compound: CC(=O)Nc1ncc(CN2CCC3(CCN(c4ccnc(C(F)(F)F)c4)C3)C2)s1 (centres unmarked)
endpoint_label: EC50
result: 724 nM
//
compound: CC(=O)Nc1ncc(CN2CCC3(CCN(c4cc(C)cnc4C)C3)C2)s1 (centres unmarked)
endpoint_label: EC50
result: 186 nM

Exam item: What value of EC50 has been recorded for this entry: Cc1cc(N2CCC3(CCN(C(C)c4ccc5c(c4)OCCO5)C3)C2)cc(C)n1 (centres unmarked)
Marked response: 389 nM

Exam item: What value of EC50 has been recorded for this entry: CC(=O)Nc1ncc(CN2CCC3(CCN(c4cc(C)nc(C)c4)C3)C2)s1 (single isomer, unassigned) [Product 3]
Marked response: 282 nM

Exam item: What value of EC50 has been recorded for this entry: COc1cc(N2CCC3(CCN(Cc4cnc(NC(C)=O)s4)C3)C2)ccn1 (centres unmarked)
Marked response: 219 nM

Exam item: What value of EC50 has been recorded for this entry: Cc1cc(N2CCC3(CCN(Cc4ccc5sc(C)nc5c4)C3)C2)nc(C)n1 (centres unmarked)
Marked response: > 1000 nM

Exam item: What value of EC50 has been recorded for this entry: CC(=O)Nc1ncc(CN2CCC3(CCN(c4c(C)cncc4C)C3)C2)s1 (centres unmarked)
Marked response: 148 nM

---

# Emax per record follows
# test_target: recombinant human Meningioma Expressed Antigen 5 (MGEA5), also referred to as O-GlcNAcase (OGA) (Homo sapiens, UniProt O60502)
# Construct: Full length OGA enzyme was purchased at OriGene (cat # TP322411); purchased OriGene TP322411
# assay_summary: OGA biochemical assay (inhibition of FM-GlcNAc hydrolysis, fluorescence)
# condition_summary: read-out: ENZYMATIC Emax (%)
The response must be a number in % with no trailing unit.

Below, 2 molecules whose answers are already recorded.
molecule: Cc1cc(N2CCC3(CCN(Cc4ccc5sc(C)nc5c4)C3)C2)cc(C(F)(F)F)n1 (stereo not drawn)
endpoint_label: Emax
result_number: 96.2
--
molecule: Cc1cc(N2CCC3(CCN(Cc4ccc5nccnc5c4)C3)C2)nc(C)n1 (stereo not drawn)
endpoint_label: Emax
result_number: 96

# input for lookup
Exam item: What value of Emax has been recorded for this entry: CC(c1ccc2nccnc2c1)N1CCC2(CCN(c3cncc(C4CC4)n3)C2)C1 (stereo not drawn)
Marked response: 93.4

---

# test_target: recombinant human Meningioma Expressed Antigen 5 (MGEA5), also referred to as O-GlcNAcase (OGA) (Homo sapiens)
# Construct: Full length OGA enzyme was purchased at OriGene (cat # TP322411); purchased OriGene TP322411
# assay_summary: OGA biochemical assay (inhibition of FM-GlcNAc hydrolysis, fluorescence)
# condition_summary: read-out: ENZYMATIC Emax (%)
# Emax per record follows
The response must be a number in % with no trailing unit.

Below, 5 molecules whose answers are already recorded.
molecule: Cc1cc(N2CCC3(CCN(C(C)c4ccc5scnc5c4)C3)C2)nc(C)n1.Cl (stereo not drawn)
Emax (%): 99.3
--
molecule: CC(=O)Nc1ncc(CN2CCC3(CCN(c4cncc(C)c4)C3)C2)s1 (stereo not drawn)
Emax (%): 103
--
molecule: Cc1cc(N2CCC3(CCN(C(C)c4ccc5nccnc5c4)C3)C2)cc(C)n1 (stereo not drawn) [Product 6]
Emax (%): 97.8
--
molecule: Cc1cc(N2CCC3(CCN(Cc4ccc5scnc5c4)C3)C2)nc(C)n1 (stereo not drawn)
Emax (%): 98.1
--
molecule: CC(=O)Nc1ncc(CN2CCC3(CCN(c4cc(C)nc(C(F)(F)F)c4)C3)C2)s1 (stereo not drawn)
Emax (%): 101

Exam item: What value of Emax has been recorded for this entry: Cc1cc(N2CCC3(CCN(C(C)c4ccc5c(c4)OCCO5)C3)C2)cc(C)n1 (stereo not drawn)
Marked response: 101

Exam item: What value of Emax has been recorded for this entry: CC(=O)Nc1ncc(CN2CCC3(C2)CN(c2cc(C)nc(C)c2)C3)s1
Marked response: 100

Exam item: What value of Emax has been recorded for this entry: CC(=O)Nc1ncc(CN2CC3(CCN(c4cc(C)nc(C)c4)C3)C2)s1
Marked response: 57.9

Exam item: What value of Emax has been recorded for this entry: CC(=O)Nc1ncc(CN2CCC3(CCN(c4cc(C)c(C)cn4)C3)C2)s1 (stereo not drawn)
Marked response: 102

---

Counter-ions that a name gives are not always drawn.
Tick YES if melting point is 200 °C or greater. Tick NO if melting point is less than 200 °C.

Worked set:
molecule: CC(=O)Nc1ncc(CN2CCC3(C2)CN(c2cc(C)nc(C)c2)C3)s1 [Product 23]
discrete_label: YES
//
molecule: Cc1cc(N2CCC3(CCN(C(C)c4ccc5sc(C)nc5c4)C3)C2)nc(C)n1 (stereo not shown) [Product 31]
discrete_label: YES
//
molecule: CC(=O)Nc1ncc(CN2CC3(CCN(c4cc(C)nc(C)c4)C3)C2)s1 [Product 25]
discrete_label: YES
//
molecule: Cc1cc(N2CCC3(CCN(C(C)c4cc5ccccc5n4C)C3)C2)nc(C)n1.Cl (stereo not shown) [Product 27]
discrete_label: NO
//
molecule: Cc1cc(N2CCC3(CCN(Cc4ccc5sc(C)nc5c4)C3)C2)nc(C)n1 (stereo not shown) (as salt: HCl) [Product 32]
discrete_label: YES

Exam item: Record Cc1cc(N2CCC3(CCN(C(C)c4ccc5nccnc5c4)C3)C2)nc(C)n1.Cl (stereo not shown) [Product 20] ; criterion: melting point no lower than 200 °C. Met?
Marked response: NO

Exam item: Record Cc1cc(N2CCC3(CCN(C(C)c4ccc5scnc5c4)C3)C2)nc(C)n1.Cl (stereo not shown) [Product 24] ; criterion: melting point no lower than 200 °C. Met?
Marked response: YES

---

# Emax per record follows
# test_target: OGA (Homo sapiens)
# Construct: HEK293 cells inducible for P301L mutant human Tau (isoform 2N4R) were established at Janssen; endogenous in cells; host or cells: HEK293 cells inducible for P301L mutant human Tau (2N4R)
# Sequence (O60502 1-916): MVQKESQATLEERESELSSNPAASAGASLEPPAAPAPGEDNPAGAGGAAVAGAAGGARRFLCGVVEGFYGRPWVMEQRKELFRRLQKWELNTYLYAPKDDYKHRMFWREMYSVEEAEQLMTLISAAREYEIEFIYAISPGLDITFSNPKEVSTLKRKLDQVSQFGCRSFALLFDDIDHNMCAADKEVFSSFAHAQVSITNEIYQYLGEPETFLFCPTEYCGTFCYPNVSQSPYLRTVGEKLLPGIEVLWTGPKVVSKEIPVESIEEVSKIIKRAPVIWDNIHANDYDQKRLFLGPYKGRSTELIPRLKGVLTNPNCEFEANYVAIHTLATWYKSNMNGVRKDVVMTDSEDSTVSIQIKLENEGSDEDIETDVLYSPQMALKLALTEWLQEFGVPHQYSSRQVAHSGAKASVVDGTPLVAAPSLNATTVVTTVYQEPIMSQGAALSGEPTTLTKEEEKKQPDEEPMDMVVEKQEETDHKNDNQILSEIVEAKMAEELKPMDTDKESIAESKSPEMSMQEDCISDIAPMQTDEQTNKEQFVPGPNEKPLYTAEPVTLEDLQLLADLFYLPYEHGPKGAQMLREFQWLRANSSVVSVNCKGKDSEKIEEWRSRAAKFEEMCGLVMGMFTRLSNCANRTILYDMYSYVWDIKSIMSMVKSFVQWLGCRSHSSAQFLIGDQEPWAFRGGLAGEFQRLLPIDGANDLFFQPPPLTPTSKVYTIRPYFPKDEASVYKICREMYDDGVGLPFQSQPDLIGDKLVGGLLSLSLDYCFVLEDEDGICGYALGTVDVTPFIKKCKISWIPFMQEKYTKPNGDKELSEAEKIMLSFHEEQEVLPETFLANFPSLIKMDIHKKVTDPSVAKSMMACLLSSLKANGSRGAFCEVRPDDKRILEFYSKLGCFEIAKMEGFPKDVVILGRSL
# assay_summary: OGA cellular assay (ICC detection of O-GlcNAcylated proteins in HEK293 cells inducible for P301L mutant human Tau)
# Assay type: cell-based
# condition_summary: 6 hours incubation
The response must be a number in % with no trailing unit.

compound: Cc1cc(N2CCC3(CCN(Cc4ccc5nccnc5c4)C3)C2)nc(C)n1 (stereo not drawn) [Product 22]
Emax / %: 12
//
compound: CC(=O)Nc1ncc(CN2CCC3(CCN(c4ccnc(C)c4)C3)C2)s1 (stereo not drawn) [Product 52]
Emax / %: 73.7

# input for lookup
Exam item: What value of Emax has been recorded for this entry: Cc1cc(N2CCC3(CCN(C(C)c4ccc5c(c4)OCCO5)C3)C2)cc(C)n1 (stereo not drawn) [Product 38]
Marked response: 68.9
